Where these numbers come from: paper PMC4403932

assay system: BRD9 (Homo sapiens, UniProt Q9H8M2)
Construct: made in house
Sequence (Q9H8M2 136-240 limits assumed): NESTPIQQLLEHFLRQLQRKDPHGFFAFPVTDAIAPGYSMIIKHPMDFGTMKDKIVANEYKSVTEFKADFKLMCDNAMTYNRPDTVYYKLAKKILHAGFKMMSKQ
measurement description: Protein stability (thermal) shift assay, BRD9
Format: binding
experimental setup: compound 10 μM, protein 2 μM; average of triplicate; read-out: ΔTm Shift, BRD9
property name: ΔTm at 10 µM (°C)

Worked set:
Req: Dear colleague, I am looking for the recorded ΔTm at 10 µM of the following molecule: COc1cccc(OC(C)C)c1-c1nc(N)nc2[nH]cnc12 [Compound 6b]
Resp: -0.162

Req: Dear colleague, I am looking for the recorded ΔTm at 10 µM of the following molecule: CCOc1ccc(Br)cc1-c1nc(N)nc2[nH]cnc12 [Compound 7e]
Resp: 0.316

a = Nc1nc(-c2cccc3c2Sc2ccccc2S3)c2nc[nH]c2n1 [Compound 10, 2-Amino-6-thianthrenyl-9H-purine]
b = Nc1nc(-c2ccc(Oc3ccccc3)cc2)c2nc[nH]c2n1 [Compound 3d, 2-Amino-6-(4-phenoxyphenyl)-9H-purine]
Req: When a and b are compared, which has the higher number for ΔTm at 10 µM? Pick one; state its label.
Resp: b
